TGT: CDK9-CYCLINT1 (Homo sapiens)
Construct: purchased Carna
Sequence (P50750 whole entry): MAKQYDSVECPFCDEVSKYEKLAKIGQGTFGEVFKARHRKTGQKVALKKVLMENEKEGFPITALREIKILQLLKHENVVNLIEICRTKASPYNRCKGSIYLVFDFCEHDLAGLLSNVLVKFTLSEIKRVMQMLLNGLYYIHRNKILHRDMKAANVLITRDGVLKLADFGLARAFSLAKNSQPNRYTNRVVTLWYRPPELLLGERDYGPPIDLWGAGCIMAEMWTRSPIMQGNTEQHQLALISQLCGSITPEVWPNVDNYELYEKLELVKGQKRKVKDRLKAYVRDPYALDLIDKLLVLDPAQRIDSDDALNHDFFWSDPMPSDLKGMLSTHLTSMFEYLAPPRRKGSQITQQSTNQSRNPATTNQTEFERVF
Sequence (O60563 whole entry partner): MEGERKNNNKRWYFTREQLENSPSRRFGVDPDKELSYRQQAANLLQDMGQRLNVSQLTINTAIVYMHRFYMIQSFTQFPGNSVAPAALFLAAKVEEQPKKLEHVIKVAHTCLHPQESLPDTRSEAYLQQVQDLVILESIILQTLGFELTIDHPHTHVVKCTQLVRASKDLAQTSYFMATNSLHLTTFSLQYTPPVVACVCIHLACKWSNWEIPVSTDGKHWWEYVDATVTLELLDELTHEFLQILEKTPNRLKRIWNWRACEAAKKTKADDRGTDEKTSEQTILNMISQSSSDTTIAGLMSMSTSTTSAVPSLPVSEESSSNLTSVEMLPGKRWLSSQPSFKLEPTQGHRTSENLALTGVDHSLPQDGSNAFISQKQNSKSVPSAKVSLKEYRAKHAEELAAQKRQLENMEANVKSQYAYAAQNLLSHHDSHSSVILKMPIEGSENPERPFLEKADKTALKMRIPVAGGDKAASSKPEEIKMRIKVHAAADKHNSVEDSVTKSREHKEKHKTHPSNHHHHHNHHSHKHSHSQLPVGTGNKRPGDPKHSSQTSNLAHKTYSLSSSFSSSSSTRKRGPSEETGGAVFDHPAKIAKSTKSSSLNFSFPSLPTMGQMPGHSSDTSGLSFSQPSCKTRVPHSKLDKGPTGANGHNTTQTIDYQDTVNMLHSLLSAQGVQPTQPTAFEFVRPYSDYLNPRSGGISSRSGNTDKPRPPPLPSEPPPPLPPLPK
PROTOCOL_TEXT: CDK inhibition assay (microfluidic LabChip, IC50 format)
Format: biochemical
EXPERIMENTAL_CONTEXT: Table 3; purified enantiomers; read-out: CDK9-T (E1/E2)
TEST_READOUT: IC50

MOLECULAR_STRING | MEASURED_RESULT
O=C1NCC[C@]12Cc1cnc(Nc3ccc(N4CCNCC4)c(F)c3)nc1N(C1CCCC1)C2=O | 1240 nM
O=C1NCC[C@@]12Cc1cnc(Nc3ccc(N4CCNCC4)cc3)nc1N(C1CCCC1)C2=O | 11.1 nM
O=C1NCC[C@]12Cc1cnc(Nc3ccc(N4CCNCC4)cc3)nc1N(C1CCCC1)C2=O | 1800 nM
O=C1NCC[C@]12Cc1cnc(Nc3ccc(N4CCNCC4)cn3)nc1N(C1CCCC1)C2=O | > 100000 nM

----------
TGT: CDK6-CYCLIND3 (Homo sapiens, UniProt Q00534)
Construct: purchased Carna
Sequence (Q00534 whole entry): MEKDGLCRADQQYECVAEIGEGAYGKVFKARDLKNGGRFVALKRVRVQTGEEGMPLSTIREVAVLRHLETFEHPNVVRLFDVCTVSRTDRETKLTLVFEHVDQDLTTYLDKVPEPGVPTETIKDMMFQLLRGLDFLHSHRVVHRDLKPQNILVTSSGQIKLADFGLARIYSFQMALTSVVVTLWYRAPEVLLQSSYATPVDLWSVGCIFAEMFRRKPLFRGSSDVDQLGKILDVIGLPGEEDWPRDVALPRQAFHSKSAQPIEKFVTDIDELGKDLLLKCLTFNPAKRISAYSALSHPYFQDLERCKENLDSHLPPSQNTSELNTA
Sequence (P30281 whole entry partner): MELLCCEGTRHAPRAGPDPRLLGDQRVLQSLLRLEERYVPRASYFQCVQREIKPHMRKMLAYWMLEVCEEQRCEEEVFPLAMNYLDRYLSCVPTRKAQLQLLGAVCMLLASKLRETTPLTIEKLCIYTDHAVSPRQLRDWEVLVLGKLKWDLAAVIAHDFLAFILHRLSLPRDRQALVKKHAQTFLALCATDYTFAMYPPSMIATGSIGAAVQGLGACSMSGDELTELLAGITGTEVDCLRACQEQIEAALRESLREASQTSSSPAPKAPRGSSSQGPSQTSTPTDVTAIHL
PROTOCOL_TEXT: CDK inhibition assay (microfluidic LabChip, IC50 format)
Assay type: biochemical
EXPERIMENTAL_CONTEXT: Table 4b, lower part; read-out: CDK6 CyclinD3 IC50
pIC50: −log10 of the molar value.
TEST_READOUT: pIC50

COMPOUND | VALUE_MODIFIER | MEASURED_RESULT
O=C1NCC[C@@]12Cc1cnc(Nc3ccc(N4CCC(N5CCOCC5)CC4)cn3)nc1N(C1CCCC1)C2=O [Example D181] | = | 8.17
CC(C)N1CCN(c2ccc(Nc3ncc4c(n3)N(C3CCCC3)C(=O)[C@]3(CCNC3=O)C4)cn2)CC1 [Example D151] | = | 8.55
O=C1NCC[C@@]12Cc1cnc(Nc3ccc(N4CCC(N5CCOCC5)CC4)cc3)nc1N(C1CCCC1)C2=O [Example D182] | > | 9.25
O=C1NCC[C@@]12Cc1cnc(Nc3ccc(N4CCC(N5CCOCC5)CC4)nc3)nc1N(C1CCCC1)C2=O [Example D193] | = | 8.63
CN1CCN(c2ccc(Nc3ncc4c(n3)N(C35CC(C3)C5)C(=O)[C@]3(CCNC3=O)C4)cc2)CC1 [Example D186] | = | 7.41
CN1CCN(c2ccc(Nc3ncc4c(n3)N(C35CC(C3)C5)C(=O)[C@]3(CCNC3=O)C4)nc2)CC1 [Example D188] | = | 4.66
CN1CCN(c2ccc(Nc3ncc4c(n3)N(C35CC(C3)C5)C(=O)[C@@]3(CCNC3=O)C4)cc2F)CC1 [Example D197] | = | 5.27

----------
TGT: UniProt:P11802
PROTOCOL_TEXT: CDK inhibition assay (microfluidic LabChip, IC50 format)
EXPERIMENTAL_CONTEXT: CDK4 IC50, Table 4b, upper part
pIC50: −log10 of the molar value.
Collected pIC50 values appear next to each entry.

COMPOUND | TGT | pIC50
O=C1NCCC12Cc1cnc(Nc3ccc(N4CCNCC4)cc3F)nc1N(C1CCCC1)C2=O (stereo not drawn) | UniProt:P11802 | 8.29
CN(C)CCOc1ccc(Nc2ncc3c(n2)N(C2CCCC2)C(=O)C2(CC(=O)N(C)C2=O)C3)cn1 (stereo not drawn) | UniProt:P11802 | 6.44
O=C1NCCC12Cc1cnc(Nc3ccc(N4CC5(CNC5)C4)nc3)nc1N(C1CCCC1)C2=O (stereo not drawn) | UniProt:P11802 | 8.57
O=C1NCCC12Cc1cnc(Nc3ccc(OCCN4CCCC4)c(F)c3)nc1N(C1CCCC1)C2=O (stereo not drawn) | UniProt:P11802 | 8.28
O=C1NCCC12Cc1cnc(Nc3ccc(N4CCNCC4)nc3)nc1N(C1CCCC1)C2=O (stereo not drawn) | UniProt:P11802 | 8.06
CN1CCN(c2ccc(Nc3ncc4c(n3)N(C3CCCC3)C(=O)C3(CC(=O)N(C)C3=O)C4)cc2)CC1 (stereo not drawn) | UniProt:P11802 | 7.29
CN(C)CCOc1ccc(Nc2ncc3c(n2)N(C2CCCC2)C(=O)C2(CCNC2=O)C3)cc1 (stereo not drawn) | UniProt:P11802 | 8.47
O=C1NCCC12Cc1cnc(Nc3ccc(N4CCC(N5CCOCC5)CC4)cn3)nc1N(C1CCCC1)C2=O (stereo not drawn) | UniProt:P11802 | 8.14
O=C1NCCC12Cc1cnc(Nc3ccc(N4CC5(CNC5)C4)cn3)nc1N(C1CCCC1)C2=O (stereo not drawn) | UniProt:P11802 | 8.34
CN(C)[C@H]1CCN(C(=O)c2ccc(Nc3ncc4c(n3)N(C3CCCC3)C(=O)C3(CCNC3=O)C4)cc2F)C1 (stereo partly drawn) | UniProt:P11802 | 8.71
CC(C)N1CCN(c2ccc(Nc3ncc4c(n3)N(C3CCCC3)C(=O)C3(CCNC3=O)C4)nc2)CC1 (stereo not drawn) | UniProt:P11802 | 8.52
O=C1NCCC12Cc1cnc(Nc3ccc(OCCN4CCCC4)nc3)nc1N(C1CCCC1)C2=O (stereo not drawn) | UniProt:P11802 | 8.15
CN1CCN(c2ccc(Nc3ncc4c(n3)N(C3CCCC3)C(=O)C3(CCN(C)C3=O)C4)cc2F)CC1 (stereo not drawn) | UniProt:P11802 | 7.47
O=C1NCCC12Cc1cnc(Nc3ccc(OCCN4CCCCC4)nc3)nc1N(C1CCCC1)C2=O (stereo not drawn) | UniProt:P11802 | 8.15
CN(C)CCOc1ccc(Nc2ncc3c(n2)N(C2CCCC2)C(=O)C2(CC(=O)N(C)C2=O)C3)cc1 (stereo not drawn) | UniProt:P11802 | 6.81

----------
TGT: CDK4-CYCLIND1 (Homo sapiens)
Sequence (P11802 whole entry): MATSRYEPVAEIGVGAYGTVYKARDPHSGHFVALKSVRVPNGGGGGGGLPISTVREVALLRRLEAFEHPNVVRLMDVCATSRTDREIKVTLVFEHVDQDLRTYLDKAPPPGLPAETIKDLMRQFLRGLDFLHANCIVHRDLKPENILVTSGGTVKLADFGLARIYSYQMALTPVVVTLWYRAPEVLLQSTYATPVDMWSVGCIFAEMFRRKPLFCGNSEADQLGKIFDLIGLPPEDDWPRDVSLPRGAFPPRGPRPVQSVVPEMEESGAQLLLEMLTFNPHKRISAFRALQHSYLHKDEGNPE
Sequence (P24385 whole entry partner): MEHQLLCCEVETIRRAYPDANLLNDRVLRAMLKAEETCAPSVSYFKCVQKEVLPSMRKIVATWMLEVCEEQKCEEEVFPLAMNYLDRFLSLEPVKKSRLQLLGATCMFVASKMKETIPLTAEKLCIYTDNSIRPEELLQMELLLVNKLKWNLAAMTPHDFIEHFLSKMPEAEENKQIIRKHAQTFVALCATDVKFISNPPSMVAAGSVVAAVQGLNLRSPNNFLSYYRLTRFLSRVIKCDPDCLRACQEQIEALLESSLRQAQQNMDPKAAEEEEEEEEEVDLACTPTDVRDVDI
PROTOCOL_TEXT: CDK inhibition assay (microfluidic LabChip, IC50 format)
EXPERIMENTAL_CONTEXT: CDK4 (E1/E2), Table 3; purified enantiomers
Collected IC50 values appear next to each entry.
TEST_READOUT: IC50 (nM)

MOLECULAR_STRING | TEST_READOUT | MEASURED_RESULT
CN1CCN(c2ccc(Nc3ncc4c(n3)N(C3CCCC3)C(=O)[C@]3(CCNC3=O)C4)cc2F)CC1 | IC50 | 0.904
O=C1NCC[C@@]12Cc1cnc(Nc3ccc(N4CCNCC4)cc3)nc1N(C1CCCC1)C2=O | IC50 | 1.4
CN1CCN(c2ccc(Nc3ncc4c(n3)N(C3CCCC3)C(=O)[C@@]3(CCNC3=O)C4)cc2F)CC1 | IC50 | 211
CC(C)N1CCN(c2ccc(Nc3ncc4c(n3)N(C3CCCC3)C(=O)[C@]3(CCNC3=O)C4)cc2F)CC1 | IC50 | 0.822
O=C1NCC[C@]12Cc1cnc(Nc3ccc(N4CCNCC4)cn3)nc1N(C1CCCC1)C2=O | IC50 | 1050
O=C1NCC[C@@]12Cc1cnc(Nc3ccc(N4CCNCC4)cn3)nc1N(C1CCCC1)C2=O | IC50 | 2.96
O=C1NCC[C@@]12Cc1cnc(Nc3ccc(N4CCNCC4)c(F)c3)nc1N(C1CCCC1)C2=O | IC50 | 0.78
CC(C)N1CCN(c2ccc(Nc3ncc4c(n3)N(C3CCCC3)C(=O)[C@@]3(CCNC3=O)C4)cc2F)CC1 | IC50 | 178
O=C1NCC[C@]12Cc1cnc(Nc3ccc(N4CCNCC4)cc3)nc1N(C1CCCC1)C2=O | IC50 | 251
O=C1NCC[C@]12Cc1cnc(Nc3ccc(N4CCNCC4)c(F)c3)nc1N(C1CCCC1)C2=O | IC50 | 136

----------
Test system: GXA MKN45
PROTOCOL_TEXT: 2D cell proliferation assay (CellTiter-Blue)
Type: cell-based
EXPERIMENTAL_CONTEXT: Homo sapiens, MKN-45, 72 h, three days of treatment, read-out: abs. IC50
Collected IC50 values appear next to each entry.
TEST_READOUT: IC50 (µM)

MOLECULAR_STRING | UNITS_OF_MEASURE | MEASURED_RESULT
CN(C)[C@H]1CCN(c2ccc(Nc3ncc4c(n3)N(C3CCCC3)C(=O)[C@]3(CCNC3=O)C4)nc2)C1 | µM | 47.3
CC(C)N1CCN(c2ccc(Nc3ncc4c(n3)N(C3CCCC3)C(=O)[C@]3(CCNC3=O)C4)nc2)CC1 | µM | 47.8
CN(C)CCOc1ccc(Nc2ncc3c(n2)N(C2CCCC2)C(=O)[C@]2(CCNC2=O)C3)cc1 | µM | 0.112
O=C1NCC[C@@]12Cc1cnc(Nc3ccc(N4CCNCC4)cc3F)nc1N(C1CCCC1)C2=O | µM | 3.12

----------
Collected IC50 values appear next to each entry.
TGT: CDK2-CYCLINA (Homo sapiens, UniProt P24941)
Construct: purchased Millipore
PROTOCOL_TEXT: CDK inhibition assay (microfluidic LabChip, IC50 format)
Format: biochemical
EXPERIMENTAL_CONTEXT: Table 4a; read-out: CDK2 CyclinA IC50

COMPOUND | TGT | VALUE_MODIFIER | IC50 / nM
Cc1cc(N2CCNCC2)ccc1Nc1ncc2c(n1)N(C1CCCC1)C(=O)[C@]1(CCNC1=O)C2 [Example D162] | CDK2-CYCLINA (Homo sapiens, UniProt P24941) | = | 382
CC(C)N1CCN(c2ccc(Nc3ncc4c(n3)N(C3CCCC3)C(=O)[C@]3(CCNC3=O)C4)nc2)CC1 [Example D154] | CDK2-CYCLINA (Homo sapiens, UniProt P24941) | = | 2140
CN1CCN(c2ccc(Nc3ncc4c(n3)N(C3CCCC3)C(=O)N([C@@H]3CCNC3)C4)cc2)CC1 [Example D74] | CDK2-CYCLINA (Homo sapiens, UniProt P24941) | > | 10000
O=C1NCC[C@@]12Cc1cnc(Nc3ccc(-c4cn[nH]c4)cc3)nc1N(C1CCCC1)C2=O [Example D168] | CDK2-CYCLINA (Homo sapiens, UniProt P24941) | = | 55.4
Cc1cc(Nc2ncc3c(n2)N(C2CCCC2)C(=O)[C@]2(CCNC2=O)C3)ccc1N1CCN(C)CC1 [Example D157] | CDK2-CYCLINA (Homo sapiens, UniProt P24941) | = | 18.3
CCN1CCN(Cc2ccc(Nc3ncc4c(n3)N(C3CCCC3)C(=O)[C@]3(CCNC3=O)C4)nc2)CC1 [Example D155] | CDK2-CYCLINA (Homo sapiens, UniProt P24941) | = | 3440
CN(C)CCOc1ccc(Nc2ncc3c(n2)N(C2CCCC2)C(=O)[C@]2(CCNC2=O)C3)cc1 [Example D179] | CDK2-CYCLINA (Homo sapiens, UniProt P24941) | = | 67.5
